experiment: NOVARTIS: Cytotoxicity against human hepatocellular carcinoma cell line (Huh7); format: toxicity, cell-based, Huh-7; settings: Huh7 cells (hepatocellular carcinoma cell line)
Property Measured: CC50

Consider the worked cases shown below.
Req: Given the molecule CC(Cc1ccccc1)NCCCCCCCNC(C)Cc1ccccc1 (stereo not drawn) , write its reported CC50.
Resp: 5.9 µM

Req: Given COc1ccc(C2C(C(=O)NCCN(C)C)c3ccccc3C(=O)N2C2CCCCC2)cc1 (stereo not drawn) , respond with its CC50.
Resp: > 10 µM

Req: Fill in reported CC50 for this entry: CCOC(=O)c1c(NC(=O)C(C)Sc2nnc(CNC(=O)c3ccco3)n2-c2cccc(Cl)c2)sc2c1CCCC2 (stereo not drawn)
Resp: > 100 µM

Req: Consider the molecule O=C(Nc1ccc(-c2nc3ccc(NC(=O)c4cccc5ccccc45)cc3[nH]2)cc1)c1cccc2ccccc12 . State its measured CC50.
Resp: > 10 µM

Req: Hello, please tell me recorded CC50 for this one: CCN(CC)CCCNC(=S)N(CCc1cccc(C)c1)Cc1cc2cc(OC)c(OC)cc2[nH]c1=O
Resp: 18.6 µM

Req: Give reported CC50 value for Fc1cccc(Nc2nc(NCC3CCCO3)c3ccccc3n2)c1 (stereo not drawn)
Resp: 9.58 µM

Req: Provide one value: measured CC50 of CCOc1ccc(CN2CCN(CC(O)COc3ccc(OCC(O)CN4CCN(Cc5ccc(OCC)cc5)CC4)cc3)CC2)cc1 (stereo not drawn)
Resp: 73.7 µM

Req: Give me measured CC50, please, for this molecule: CCCn1nc(NS(C)(=O)=O)c2cc3cccc(C)c3nc21
Resp: > 100 µM

New cases:
Req: For the molecule COc1ccc(Cl)cc1NC(=O)C1c2ccccc2C(=O)N(CC(C)C)C1c1cccs1 (stereo not drawn) , report CC50.
Resp: > 100 µM

Req: Provide only the value of recorded CC50 for CCOC(=O)C1=C(C)NC2=C(C(=O)CC(c3ccc(Cl)cc3)C2)C1c1ccccc1Cl (stereo not drawn)
Resp: > 100 µM

Req: For the molecule COc1ccc(Nc2nc(NCc3ccccc3)c3ccccc3n2)cc1 , give its reported CC50.
Resp: 8.67 µM

====

test: NOVARTIS: Cytotoxicity against human hepatocellular carcinoma cell line (Huh7); assay type: toxicity, cell-based, Huh-7; conditions: Huh7 cells (hepatocellular carcinoma cell line)
Property Measured: CC50

Reference set (4 entries):
Req: Give the measured CC50 for CCC(c1nc2ccccc2c(=O)n1-c1ccc(F)cc1)N(CCc1ccccc1)C(=O)CCc1ccccc1 (stereo not given)
Resp: > 10 µM

Req: Please supply the value of reported CC50 for the item CCOC(=O)C1=C(N)N(c2cccc([N+](=O)[O-])c2)C2=C(C(=O)CC(C)(C)C2)C1c1ccc(Br)cc1 (stereo not given)
Resp: > 100 µM

Req: Respond only with CC50 recorded for N#Cc1c(N)nc(SCC(=O)c2ccc(Cl)cc2)c(C#N)c1-c1ccco1
Resp: > 100 µM

Req: Report measured CC50; entry is COc1ccc(C2CC(=O)C3=C(C2)NC(C)=C(C(=O)OC(C)C)C3c2ccc(F)cc2)cc1 (stereo not given)
Resp: > 100 µM

Others:
Req: Please list CC50 recorded for the compound CC(C)=CCCC(C)=CCCC(C)NCCN1CCNCC1 (stereo not given)
Resp: 6.69 µM

====

test system: Plasmodium falciparum; experiment: NOVARTIS: Inhibition of Plasmodium falciparum W2 (drug-resistant) proliferation in erythrocyte-based infection assay; format: functional, organism-based; conditions: Plasmodium falciparum, W2; read-out: EC50
Reported EC50 values for a set of compounds
Entry format: amount then unit.

Some compounds with known EC50 results, for comparison:
Req: Give reported EC50 value for Clc1cccc(CSc2nc(Nc3ccc4c(c3)OCO4)c3ccccc3n2)c1
Resp: 2790 nM

Req: Let me know recorded EC50 for Cc1ccc(C[n+]2cc(-c3ccc(C)cc3)n3c2CCC3)cc1 , thanks.
Resp: 240 nM

Continuing:
Req: In one line, give reported EC50 of the entry COc1cc(-c2nc(-c3ccc(Sc4ccccc4)cc3)c(-c3ccccc3)[nH]2)cc(OC)c1O .
Resp: 1640 nM

Req: Determine from records and report EC50 for O=C(NCc1n[nH]c(=S)n1-c1ccc(Br)cc1)c1cccc2ccccc12
Resp: 301 nM

Req: Answer with the recorded EC50 for the compound listed here: CCN(CC)CCCC(C)Nc1c2ccc(Cl)cc2nc2ccc(OC)nc12 (stereo not given)
Resp: 746 nM
